target: rTas1r2-rTas1r3 V738A (Rattus norvegicus, UniProt Q923K1+Q9Z0R7, V738A); construct: expressed in transfected cells; host or cells: HEK293T cells stably expressing Gα16gust44; assay: Calcium mobilization (FLIPR), rTas1r3-V738A variant; assay type: cell-based; conditions: asp 15 mM; cyc 30 mM; neo 0.1 mM; sac 10 mM; suc 100 mM; stev 1 mM
Sequence (Q9Z0R7 20-843): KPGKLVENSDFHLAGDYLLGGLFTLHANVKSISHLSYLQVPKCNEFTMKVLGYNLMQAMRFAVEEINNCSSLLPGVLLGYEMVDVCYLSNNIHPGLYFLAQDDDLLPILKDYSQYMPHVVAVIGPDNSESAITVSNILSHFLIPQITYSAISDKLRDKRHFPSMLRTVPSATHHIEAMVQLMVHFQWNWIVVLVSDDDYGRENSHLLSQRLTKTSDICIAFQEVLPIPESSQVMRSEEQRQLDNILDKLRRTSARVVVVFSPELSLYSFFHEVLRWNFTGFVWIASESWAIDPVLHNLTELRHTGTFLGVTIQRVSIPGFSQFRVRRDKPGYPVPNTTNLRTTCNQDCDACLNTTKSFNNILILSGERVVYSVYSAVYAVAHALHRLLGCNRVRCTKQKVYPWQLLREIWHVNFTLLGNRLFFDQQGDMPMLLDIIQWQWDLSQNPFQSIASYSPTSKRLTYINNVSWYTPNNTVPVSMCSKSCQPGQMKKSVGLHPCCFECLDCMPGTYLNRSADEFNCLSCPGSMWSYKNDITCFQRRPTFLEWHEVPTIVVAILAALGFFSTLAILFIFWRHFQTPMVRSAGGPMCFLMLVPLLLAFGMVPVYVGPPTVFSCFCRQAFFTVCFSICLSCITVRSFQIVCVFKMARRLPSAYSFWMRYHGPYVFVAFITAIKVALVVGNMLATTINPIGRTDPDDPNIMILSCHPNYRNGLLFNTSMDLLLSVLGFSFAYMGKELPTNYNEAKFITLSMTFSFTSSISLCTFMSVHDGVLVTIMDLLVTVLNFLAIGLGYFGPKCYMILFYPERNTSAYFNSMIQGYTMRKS
Sequence (Q923K1 21-858 V738A): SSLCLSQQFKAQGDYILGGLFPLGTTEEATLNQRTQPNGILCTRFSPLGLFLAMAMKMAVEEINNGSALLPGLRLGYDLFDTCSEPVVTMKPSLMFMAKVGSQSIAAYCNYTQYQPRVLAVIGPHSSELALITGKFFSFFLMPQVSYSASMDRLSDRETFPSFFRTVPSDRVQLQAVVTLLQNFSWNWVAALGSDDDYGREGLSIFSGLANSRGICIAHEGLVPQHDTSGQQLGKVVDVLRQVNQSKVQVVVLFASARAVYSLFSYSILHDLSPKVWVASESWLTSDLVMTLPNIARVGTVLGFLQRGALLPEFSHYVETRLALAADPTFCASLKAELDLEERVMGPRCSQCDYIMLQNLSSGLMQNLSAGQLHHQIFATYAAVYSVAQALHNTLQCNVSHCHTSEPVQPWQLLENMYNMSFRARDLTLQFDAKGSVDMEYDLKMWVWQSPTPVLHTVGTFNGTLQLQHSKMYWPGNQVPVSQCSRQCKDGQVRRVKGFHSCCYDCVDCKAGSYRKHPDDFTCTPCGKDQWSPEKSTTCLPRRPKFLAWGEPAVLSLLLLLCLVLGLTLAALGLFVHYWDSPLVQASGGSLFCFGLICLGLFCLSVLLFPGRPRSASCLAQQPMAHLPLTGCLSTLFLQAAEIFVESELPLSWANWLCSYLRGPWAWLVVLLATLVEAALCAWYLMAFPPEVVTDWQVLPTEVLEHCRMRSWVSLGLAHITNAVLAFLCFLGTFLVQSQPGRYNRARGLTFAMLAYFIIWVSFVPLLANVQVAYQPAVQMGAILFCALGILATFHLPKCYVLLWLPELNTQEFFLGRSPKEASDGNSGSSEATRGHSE
Where a SMILES comes first, the peptide text is derived from it.
Reported property: activation of receptor (calcium response)

Compound	Result
O=S(=O)(O)NC1CCCCC1 [cyclamate]	not
COC(=O)[C@H](Cc1ccccc1)NC(=O)[C@@H](N)CC(=O)O [aspartame] (HELM PEPTIDE1{D.F.[CO[*:1]]}$$$$V2.0)	not

Values from paper PMC1084349
